Reference source for all entries: ChEMBL document CHEMBL3352048

- procedure.details: Cytotoxicity against mouse RAW264.7 cells at 50 uM after 72 hrs by MTT assay
- Type: cell-based
- recorded.conditions: read-out: INH
readout.type: cytotoxicity at 72 h, 50 µM
Give the figure together with its unit, number first.

// each listed compound needs a value for cytotoxicity at 72 h, 50 µM
1. Cc1nc2ccc(Cl)cc2c(=O)n1CC(=O)Nc1ccccc1
2. O=C(Cn1cnc2ccc(Cl)cc2c1=O)Nc1ccccc1
3. O=C(Cn1cnc2ccccc2c1=O)NCc1nc2ccc([N+](=O)[O-])cc2s1

Marked response:
19.9%
3.51%
13.1%

// each listed compound needs a value for cytotoxicity at 72 h, 50 µM
1. O=C(Cn1cnc2ccccc2c1=O)NCc1cccs1
2. Cc1nc2ccccc2c(=O)n1CC(=O)NCc1cccs1

Marked response:
1: 4.38%; 2: 35.6%

// each listed compound needs a value for cytotoxicity at 72 h, 50 µM
1. Cc1nc2ccccc2c(=O)n1CC(=O)NCc1ccco1
2. O=C(Cn1cnc2ccccc2c1=O)NCc1ccco1
3. O=C(Cn1cnc2ccc(Cl)cc2c1=O)NCc1cccs1

Marked response:
25.5%
1.96%
32.4%

// each listed compound needs a value for cytotoxicity at 72 h, 50 µM
1. Cc1nc2ccc(Cl)cc2c(=O)n1CC(=O)NCc1cccs1
2. Cc1nc2ccc(Cl)cc2c(=O)n1CC(=O)NCc1nc2ccc([N+](=O)[O-])cc2s1
3. O=C(Cn1cnc2ccccc2c1=O)Nc1cc(C(F)(F)F)ccc1Cl
4. Cc1nc2ccccc2c(=O)n1CC(=O)NCc1nc2ccc([N+](=O)[O-])cc2s1
5. O=C(Cn1cnc2ccc(Cl)cc2c1=O)NCc1ccco1
6. Cc1nc2ccccc2c(=O)n1CC(=O)Nc1ccccc1
7. O=C(Cn1cnc2ccccc2c1=O)Nc1ccccc1

Marked response:
["47.5%", "28.4%", "10.1%", "34%", "30.7%", "11.2%", "21.2%"]

// each listed compound needs a value for cytotoxicity at 72 h, 50 µM
1. O=C(Cn1cnc2ccc(Cl)cc2c1=O)Nc1cc(C(F)(F)F)ccc1Cl
2. Cc1nc2ccc(Cl)cc2c(=O)n1CC(=O)NCc1ccco1
3. O=C(Cn1cnc2ccc(Cl)cc2c1=O)NCc1nc2ccc([N+](=O)[O-])cc2s1

Marked response:
["48.9%", "3.36%", "15.8%"]

====

- assay.target: Enoyl-[acyl-carrier-protein] reductase [NADH] (Mycobacterium tuberculosis)
- procedure.details: Inhibition of Mycobacterium tuberculosis recombinant InhA expressed in Escherichia coli BL21 (DE3) using 2-trans-decenoyl substrate at 10 uM by spectrophotometry
readout.type: inhibition (%)
One number for each entry, in %.

Cc1nc2ccc(Cl)cc2c(=O)n1CC(=O)Nc1ccccc1    88.1
O=C(Cn1cnc2ccccc2c1=O)Nc1cc(C(F)(F)F)ccc1Cl    58.1

// each listed compound needs a value for inhibition
1. Cc1nc2ccccc2c(=O)n1CC(=O)NCc1cccs1
2. O=C(Cn1cnc2ccccc2c1=O)NCc1nc2ccc([N+](=O)[O-])cc2s1
3. O=C(Cn1cnc2ccc(Cl)cc2c1=O)Nc1ccccc1
4. O=C(Cn1cnc2ccccc2c1=O)NCc1ccco1
5. Cc1nc2ccc(Cl)cc2c(=O)n1CC(=O)NCc1ccco1
6. Cc1cccc(NC(=O)Cn2cnc3ccccc3c2=O)c1
7. Cc1nc2ccc(Cl)cc2c(=O)n1CC(=O)NCc1cccs1
8. O=C(Cn1cnc2ccccc2c1=O)Nc1nccs1

Marked response:
[68.2, 72.2, 58.3, 46.1, 78.1, 14.5, 70.2, 31]

// each listed compound needs a value for inhibition
1. O=C(Cn1cnc2ccccc2c1=O)Nc1cc(Cl)ccc1Cl
2. O=C(Cn1cnc2ccc(Cl)cc2c1=O)NCc1ccco1
3. Cc1nc2ccccc2c(=O)n1CC(=O)NCc1nc2ccc([N+](=O)[O-])cc2s1

Marked response:
[16.3, 82.4, 64]

// each listed compound needs a value for inhibition
1. O=C(Cn1cnc2ccccc2c1=O)NCc1cccs1
2. O=C(Cn1cnc2ccc(Cl)cc2c1=O)NCc1nc2ccc([N+](=O)[O-])cc2s1

Marked response:
[33.7, 45.6]
